Assay: CREB reporter modulators without forskolin, primary screen, cell-based, PC12, CRE-LacZ reporter, unstimulated (AID 1145)
Details: no forskolin, luminescence, 4.5 h, called active from +8 up or from −8 down
The source made the active and inactive calls.
Please answer using one outcome listed in active, inactive

Record excerpt, results attached:
{"compound": "CN(C)CCCNC(=O)[C@@]1(c2ccc([N+](=O)[O-])cc2)CC(=O)N(CC23CC4CC(CC(C4)C2)C3)[C@@H]1c1ccc(CO)cc1", "classAssignment": "inactive"}
{"compound": "CC(C)(C)N1CC=CC23O[C@@H]4C=CCOC(=O)[C@@H]4[C@H]2C(=O)N(CCCO)[C@@H]3C1=O (stereo partly drawn)", "classAssignment": "inactive"}
{"compound": "O=C1C[C@@](C(=O)NCC(F)(F)F)(c2ccc([N+](=O)[O-])cc2)[C@@H](c2ccc(CO)cc2)N1C1CCCCC1", "classAssignment": "inactive"}
{"compound": "CC(=O)n1cc(C(O)C2C=CC3C(=O)N(Cc4ccccc4)C(=O)C3N2n2cnnc2)c2ccccc21 (stereo not drawn)", "classAssignment": "inactive"}
{"compound": "O=C1c2ccccc2[C@@]2(Cc3ccccc3N(C3CC3)C2=O)[C@H](c2ccc(CO)cc2)N1C1CCCCC1", "classAssignment": "inactive"}

# outcome recorded in this test, key = Cc1ccc(F)cc1S(=O)(=O)N[C@@H]1CCN(Cc2ccc(OC(C)C)cc2)C1
inactive

How was C=C(COC)/C(=C/C[C@@H](OC(=O)c1ccncc1)c1cccc(OCCO)c1)c1cnc2ccccc2c1 classified in this test?
active

Answer briefly: the call reported for Cc1c(NC(=O)/C(C#N)=C/C=C/c2ccc(N(C)C)cc2)c(=O)n(-c2ccccc2)n1C in this assay.
inactive

====

Each record here notes measured composite z-score.
Target: Dickkopf-related protein 1 (Homo sapiens) (UniProt O94907)
Sequence (O94907 whole entry, looked up): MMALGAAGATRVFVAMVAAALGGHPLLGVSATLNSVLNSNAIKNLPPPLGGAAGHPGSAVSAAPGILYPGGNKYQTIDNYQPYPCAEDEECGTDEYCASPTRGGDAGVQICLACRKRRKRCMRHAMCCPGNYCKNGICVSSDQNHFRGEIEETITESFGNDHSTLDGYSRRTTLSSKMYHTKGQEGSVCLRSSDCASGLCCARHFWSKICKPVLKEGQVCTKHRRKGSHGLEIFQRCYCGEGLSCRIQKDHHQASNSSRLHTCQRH
Experiment: DKK1 binders on small-molecule microarrays, primary screen, biochemical, small-molecule microarray, 635 nm fluorescence scan (AID 1106);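 also: score merges emission near 667 nm with signal to noise over three replicate slides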
Conditions: DKK1 binding, higher = more signal
No unit in the answer, please; the number alone is enough.

// solved cases for composite z-score follow
{"compound": "CO[C@H]1O[C@H](CO)[C@@H](OC(=O)c2ccc(Br)cc2)[C@@H]2OC(=O)[C@@H](Cc3ccc4ccccc4c3)C/C=C/C[C@H](Cc3ccc4ccccc4c3)C(=O)O[C@@H]12", "assayValue": -0.54}
{"compound": "C=CCOC(=O)[C@H]1[C@@H]2C(=O)O[C@@H](c3ccccc3)[C@@H](c3ccccc3)N2[C@@H](c2ccc(OCCOC(=O)[C@H]3C[C@H]4C(=O)N[C@@H](Cc5ccccc5)C(=O)N4[C@H]3c3ccc(O)cc3)cc2)[C@]12C(=O)Nc1ccc(I)cc12", "assayValue": 1.27}
{"compound": "Cc1ccc(S[C@]2(C(=O)NCC(F)(F)F)CC(=O)N(Cc3ccccc3)[C@@H]2c2ccc(CO)cc2)cc1", "assayValue": -1.32}
{"compound": "COC(=O)[C@@]1(Cc2ccccc2)[C@H]2c3cc(C(=O)N4CCCC4)n(Cc4cc(F)cc5c4OCOC5)c3C[C@H]2CN1C(=O)c1ccccc1", "assayValue": -0.66}
{"compound": "NC(=O)NCC#Cc1ccc2c(c1)[C@]1(C(=O)N2)[C@H](C(=O)O)[C@H]2C(=O)O[C@H](c3ccccc3)[C@H](c3ccccc3)N2[C@@H]1c1ccccc1OCCO", "assayValue": 0.351}

Field: next compound
Consider O=C1NC(=O)C2C1C=CC(C(O)c1cc(C(F)(F)F)cc(C(F)(F)F)c1)N2Nc1ccc(Cl)cc1Cl (stereo unspecified) . Its measured composite z-score is -0.953
